Values were extracted from the Human Domainome abundance scans (Beltran et al. 2025).

List of abundance fitness values.
B1: Zinc finger homeobox protein 4, residues 2183 to 2238; numbered along this chain, Q86UP3 (parent)
chain: SSRTRFTDYQLRVLQDFFDTNAYPKDDEIEQLSTVLNLPTRVIVVWFQNARQKARK

# Variants of: B1
# measurement notes: abundance fitness (aPCA) (normalised: wild type 0, dead -1); higher = more abundant; growth selection in yeast, the domain comes from the species named
# conditions: Homo sapiens

sequence variant: L11T
abundance fitness: -0.063

sequence variant: F6E
abundance fitness: -0.344

sequence variant: S1M
abundance fitness: 0.045

sequence variant: A22V
abundance fitness: -0.086

sequence variant: Q10V
abundance fitness: -0.547

sequence variant: D8Q
abundance fitness: 0.103

sequence variant: V13N
abundance fitness: -0.064

sequence variant: F17S
abundance fitness: -0.097

sequence variant: R5G
abundance fitness: -0.109

sequence variant: Q31M
abundance fitness: -0.212

sequence variant: E30P
abundance fitness: -0.463

sequence variant: F17D
abundance fitness: -0.591

sequence variant: R3Q
abundance fitness: 0.053

sequence variant: T34P
abundance fitness: -0.347

sequence variant: A22G
abundance fitness: -0.186

sequence variant: D8G
abundance fitness: -0.225

sequence variant: R12H
abundance fitness: -0.166

sequence variant: T20Q
abundance fitness: -0.196

sequence variant: D26S
abundance fitness: -0.049

sequence variant: P24G
abundance fitness: -0.813

sequence variant: D26V
abundance fitness: -0.048

sequence variant: N37H
abundance fitness: -0.282

sequence variant: V35P
abundance fitness: -0.297

sequence variant: L36M
abundance fitness: -0.157

sequence variant: D8A
abundance fitness: -0.106

sequence variant: L32P
abundance fitness: -0.797

sequence variant: Q10T
abundance fitness: -0.176

sequence variant: E30N
abundance fitness: -0.166

sequence variant: D27N
abundance fitness: 0.001

sequence variant: E28W
abundance fitness: -0.596

sequence variant: D16T
abundance fitness: -0.29

sequence variant: A22L
abundance fitness: -0.219

sequence variant: L32H
abundance fitness: -1.12

sequence variant: V13D
abundance fitness: 0.079

sequence variant: P24K
abundance fitness: -0.817

sequence variant: D26M
abundance fitness: -0.056

sequence variant: Y23Q
abundance fitness: -0.173

sequence variant: R12V
abundance fitness: -0.544

sequence variant: T7C
abundance fitness: -0.586

sequence variant: I29N
abundance fitness: -0.809

sequence variant: N21S
abundance fitness: -0.2

sequence variant: Y9W
abundance fitness: 0.02

sequence variant: I29G
abundance fitness: -0.88

sequence variant: A22W
abundance fitness: -0.169

sequence variant: Y9A
abundance fitness: 0.167

sequence variant: I29F
abundance fitness: -0.152
